All figures here come from paper PMC7655718.

- System: A. baumannii ATCC 19606 (type strain, Ab06)
- TEST_METHOD_NOTES: MIC and MBC
- Type: cell-based, Acinetobacter baumannii
- SETUP_CONDITIONS: Acinetobacter baumannii, ATCC19606
PROPERTY_LABEL: MBC (µg/mL)
The response must be a number in µg/mL with no trailing unit.

TEST_SMILES | MBC [µg/mL]
O=C(O)c1ccc(-n2cc(/C=N/Nc3ccc(F)c(Cl)c3)c(-c3ccc4ccccc4c3)n2)cc1 | 50
O=C(O)c1ccc(-n2cc(/C=N/Nc3ccc(Br)cc3)c(-c3ccc4ccccc4c3)n2)cc1 | 12.5
O=C(O)c1ccc(-n2cc(/C=N/Nc3cccc(F)c3)c(-c3ccc4ccccc4c3)n2)cc1 | 12.5

Moving on to another molecule below.
Query: Find MBC for `O=C(O)c1ccc(-n2cc(/C=N/Nc3ccc(Cl)cc3)c(-c3ccc4ccccc4c3)n2)cc1` on A. baumannii ATCC 19606 (type strain, Ab06) and write it down.
Result: 50

###

MIC data for A. baumannii ATCC 747 (Ab47) follow.

Examples with their reported MIC follow.
COMPOUND | MIC
O=C(O)c1ccc(-n2cc(/C=N/Nc3ccc([N+](=O)[O-])cc3)c(-c3ccc4ccccc4c3)n2)cc1 [Compound 27] | > 50 µg/mL
O=C(O)c1ccc(-n2cc(/C=N/Nc3cccc(Br)c3)c(-c3ccc4ccccc4c3)n2)cc1 [Compound 17] | > 50 µg/mL
O=C(O)c1ccc(-n2cc(/C=N/n3cnnc3)c(-c3ccc4ccccc4c3)n2)cc1 [Compound 32] | > 50 µg/mL

Now for a further compound.
Query: Specify MIC for O=C(O)c1ccc(-n2cc(/C=N/Nc3ccc(Br)cc3)c(-c3ccc4ccccc4c3)n2)cc1 [Compound 18] , system A. baumannii ATCC 747 (Ab47).
Result: 6.25 µg/mL

###

Entries annotated with measured MIC
- Test system: S. aureus ATCC 33591 (Sa91)

Query: Input `CN(/N=C/c1cn(-c2ccc(C(=O)O)cc2)nc1-c1ccc2ccccc2c1)c1ccccc1` , output reported MIC.
Result: > 50 µg/mL

Query: Complete the entry with MIC for `N#Cc1ccc(N/N=C/c2cn(-c3ccc(C(=O)O)cc3)nc2-c2ccc3ccccc3c2)cc1`
Result: > 50 µg/mL

Query: Please give the documented MIC of `O=C(O)c1ccc(-n2cc(/C=N/N3CCCCC3)c(-c3ccc4ccccc4c3)n2)cc1`
Result: > 25 µg/mL

Query: Identify measured MIC associated with `O=C(O)c1ccc(-n2cc(/C=N/Nc3ccc(Br)cc3)c(-c3ccc4ccccc4c3)n2)cc1`
Result: 12.5 µg/mL

###

S. aureus ATCC 33591 (Sa91) MIC data
The answer is to be given in µg/mL; state only the numeric part.

Reference set (3 entries):
TEST_SMILES | MIC / µg/mL
O=C(O)c1ccc(-n2cc(/C=N/Nc3ccc(Cl)cc3Cl)c(-c3ccc4ccccc4c3)n2)cc1 | 6.25
O=C(O)c1ccc(-n2cc(/C=N/Nc3ccccc3F)c(-c3ccc4ccccc4c3)n2)cc1 | 12.5
O=C(O)c1ccc(-n2cc(/C=N/N(Cc3ccccc3)c3ccccc3)c(-c3ccc4ccccc4c3)n2)cc1 | 1.56

Could you now consider this next compound?
Query: Look up MIC of `O=C(O)c1ccc(-n2cc(/C=N/Nc3cc(F)ccc3F)c(-c3ccc4ccccc4c3)n2)cc1` and report it.
Result: 3.12
